B1: SPOPL (parent)
chain: PDDKLTLFCEVSVVQDSVNISGHT

Variants of: B1
ASSAY_PROTOCOL: protein stability index of a GFP-peptide fusion (GPS, HEK-293T) (PSI 1-6); higher = more stable;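 further: lentivirally expressed fusions sorted by FACS into six bins by GFP to DsRed ratio, PSI derived from sequencing read proportions per bin multiplied by bin number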
EXPERIMENTAL_PARAMETERS: c terminus: a fixed tail appended
Reported protein stability index by item:
REPORTED_PROPERTY: protein stability index

mutation_spec=H23Q recorded_measurement=2.3
mutation_spec=P1Q recorded_measurement=2.02
mutation_spec=C9M recorded_measurement=2.13
mutation_spec=Q15G recorded_measurement=1.97
mutation_spec=D3G recorded_measurement=2.43
mutation_spec=V14R recorded_measurement=2.74
mutation_spec=V13H recorded_measurement=3.63
mutation_spec=F8G recorded_measurement=4.82
mutation_spec=V11Q recorded_measurement=4.62
mutation_spec=K4E recorded_measurement=2.32
mutation_spec=D16Q recorded_measurement=1.27
mutation_spec=T6R recorded_measurement=2.02
mutation_spec=V11H recorded_measurement=4.28
mutation_spec=S17Y recorded_measurement=2.99
mutation_spec=S12L recorded_measurement=2.1
mutation_spec=I20A recorded_measurement=2.74
mutation_spec=V18S recorded_measurement=2.82
mutation_spec=V11M recorded_measurement=2.77
mutation_spec=F8Q recorded_measurement=4.5
mutation_spec=N19I recorded_measurement=1.39
mutation_spec=T6A recorded_measurement=2.15
mutation_spec=V11Y recorded_measurement=2.46
